# Substrate: CCn1c(=NN=c2sc3cc(S(=O)(=O)O)ccc3n2CC)sc2cc(S(=O)(=O)O)ccc21
# METHOD SUMMARY: purified protein
# RUN CONDITIONS: pH 5.0, 42 °C, 0.1-25 mM substrate
OBSERVATION TYPE: kcat
The answer should read as a number with its unit following.

Could you tell me which kcat is on file for ScSLAC (small laccase, SLAC) (Streptomyces coelicolor A3(2)) (protein) AKGITARTAPAGGEVRHLKMYAEKLADGQMGYGFEKGKASVPGPLIEVNEGDTLHIEFTNTMDVRASLHVHGLDYEISSDGTAMNKSDVEPGGTRTYTWRTHKPGRRDDGTWRPGSAGYWHYHDHVVGTEHGTGGIRNGLYGPVIVRRKGDVLPDATHTIVFNDMTINNRKPHTGPDFEATVGDRVEIVMITHGEYYHTFHMHGHRWADNRTGILTGPDDPSRVIDNKITGPADSFGFQIIAGEGVGAGAWMYHCHVQSHSDMGMVGLFLVKKPDGTIPGYEPHEHGGATAKSGESGEPTGGAAAHEHEH ?
38.6 s⁻¹

Same thing, different protein: ScSLAC (small laccase, SLAC) (Streptomyces coelicolor A3(2); M198F/M298F) (protein) AKGITARTAPAGGEVRHLKMYAEKLADGQMGYGFEKGKASVPGPLIEVNEGDTLHIEFTNTMDVRASLHVHGLDYEISSDGTAMNKSDVEPGGTRTYTWRTHKPGRRDDGTWRPGSAGYWHYHDHVVGTEHGTGGIRNGLYGPVIVRRKGDVLPDATHTIVFNDFTINNRKPHTGPDFEATVGDRVEIVMITHGEYYHTFHMHGHRWADNRTGILTGPDDPSRVIDNKITGPADSFGFQIIAGEGVGAGAWMYHCHVQSHSDMGFVGLFLVKKPDGTIPGYEPHEHGGATAKSGESGEPTGGAAAHEHEH
3.9 s⁻¹

Same thing, different protein: ScSLAC (small laccase, SLAC) (Streptomyces coelicolor A3(2); M298L) (protein) AKGITARTAPAGGEVRHLKMYAEKLADGQMGYGFEKGKASVPGPLIEVNEGDTLHIEFTNTMDVRASLHVHGLDYEISSDGTAMNKSDVEPGGTRTYTWRTHKPGRRDDGTWRPGSAGYWHYHDHVVGTEHGTGGIRNGLYGPVIVRRKGDVLPDATHTIVFNDMTINNRKPHTGPDFEATVGDRVEIVMITHGEYYHTFHMHGHRWADNRTGILTGPDDPSRVIDNKITGPADSFGFQIIAGEGVGAGAWMYHCHVQSHSDMGLVGLFLVKKPDGTIPGYEPHEHGGATAKSGESGEPTGGAAAHEHEH
9.3 s⁻¹

Same thing, different protein: ScSLAC (small laccase, SLAC) (Streptomyces coelicolor A3(2); M298F) (protein) AKGITARTAPAGGEVRHLKMYAEKLADGQMGYGFEKGKASVPGPLIEVNEGDTLHIEFTNTMDVRASLHVHGLDYEISSDGTAMNKSDVEPGGTRTYTWRTHKPGRRDDGTWRPGSAGYWHYHDHVVGTEHGTGGIRNGLYGPVIVRRKGDVLPDATHTIVFNDMTINNRKPHTGPDFEATVGDRVEIVMITHGEYYHTFHMHGHRWADNRTGILTGPDDPSRVIDNKITGPADSFGFQIIAGEGVGAGAWMYHCHVQSHSDMGFVGLFLVKKPDGTIPGYEPHEHGGATAKSGESGEPTGGAAAHEHEH
3.7 s⁻¹
